- Tested on: α-isomaltosylglucosaccharide-forming enzyme
- Measurement Protocol: Specificity of transfer acceptor (C11 enzyme)
- Format: biochemical, Bacillus globisporus C11 strain
- Parameters: key: −: no saccharide-transferred product was detected through transferring reaction to acceptor; ±: a saccharide-transferred product was detected in an amount of less than one percent through transfer reaction to acceptor; +: a saccharide-transferred product was detected in an amount of at least one percent but less than ten percent through transferring reaction to acceptor; ++: a saccharide-transferred product was detected in an amount of at least ten percent through transferring reaction to acceptor
- Condition Notes: acceptor 1.6%, PINE-DEX #100 donor 4%, one unit/g donor, 30° C., pH 6.0, 24 hours
Experimental Endpoint: Product of saccharide transferring reaction, Enzyme of C11 strain

Entry OC[C@H]1O[C@@H]2O[C@H]3[C@H](O)[C@@H](O)[C@@H](O[C@H]4[C@H](O)[C@@H](O)[C@@H](O[C@H]5[C@H](O)[C@@H](O)[C@@H](O[C@H]6[C@H](O)[C@@H](O)[C@@H](O[C@H]7[C@H](O)[C@@H](O)[C@@H](O[C@H]8[C@H](O)[C@@H](O)[C@@H](O[C@H]1[C@H](O)[C@H]2O)O[C@@H]8CO)O[C@@H]7CO)O[C@@H]6CO)O[C@@H]5CO)O[C@@H]4CO)O[C@@H]3CO needs its Product of saccharide transferring reaction, Enzyme of C11 strain filled in; supply it.
−

###

- System: α-isomaltosylglucosaccharide-forming enzyme
- Measurement Protocol: Specificity of transfer acceptor (C11 enzyme)
- Type: biochemical, Bacillus globisporus C11 strain
- Parameters: key: −: no saccharide-transferred product was detected through transferring reaction to acceptor; ±: a saccharide-transferred product was detected in an amount of less than one percent through transfer reaction to acceptor; +: a saccharide-transferred product was detected in an amount of at least one percent but less than ten percent through transferring reaction to acceptor; ++: a saccharide-transferred product was detected in an amount of at least ten percent through transferring reaction to acceptor
- Condition Notes: acceptor 1.6%, PINE-DEX #100 donor 4%, one unit/g donor, 30° C., pH 6.0, 24 hours
Experimental Endpoint: Product of saccharide transferring reaction, Enzyme of C11 strain

Entry O=C[C@@H](O)[C@@H](O)[C@H](O)[C@H](O)CO needs its Product of saccharide transferring reaction, Enzyme of C11 strain filled in; supply it.
−

Entry OC[C@H]1O[C@@H]2O[C@H]3[C@H](O)[C@@H](O)[C@@H](O[C@H]4[C@H](O)[C@@H](O)[C@@H](O[C@H]5[C@H](O)[C@@H](O)[C@@H](O[C@H]6[C@H](O)[C@@H](O)[C@@H](O[C@H]7[C@H](O)[C@@H](O)[C@@H](O[C@H]8[C@H](O)[C@@H](O)[C@@H](O[C@H]9[C@H](O)[C@@H](O)[C@@H](O[C@H]1[C@H](O)[C@H]2O)O[C@@H]9CO)O[C@@H]8CO)O[C@@H]7CO)O[C@@H]6CO)O[C@@H]5CO)O[C@@H]4CO)O[C@@H]3CO needs its Product of saccharide transferring reaction, Enzyme of C11 strain filled in; supply it.
−

Entry OC[C@@H](O)[C@@H](O)[C@H](O)[C@@H](O)CO needs its Product of saccharide transferring reaction, Enzyme of C11 strain filled in; supply it.
−

###

- System: α-isomaltosylglucosaccharide-forming enzyme
- Measurement Protocol: Specificity of transfer acceptor (C11 enzyme)
- Format: biochemical, Bacillus globisporus C11 strain
- Parameters: key: −: no saccharide-transferred product was detected through transferring reaction to acceptor; ±: a saccharide-transferred product was detected in an amount of less than one percent through transfer reaction to acceptor; +: a saccharide-transferred product was detected in an amount of at least one percent but less than ten percent through transferring reaction to acceptor; ++: a saccharide-transferred product was detected in an amount of at least ten percent through transferring reaction to acceptor
- Condition Notes: acceptor 1.6%, PINE-DEX #100 donor 4%, one unit/g donor, 30° C., pH 6.0, 24 hours
Experimental Endpoint: Product of saccharide transferring reaction, Enzyme of C11 strain

Entry C[C@H](O)[C@H](O)[C@@H](O)[C@@H](O)C=O needs its Product of saccharide transferring reaction, Enzyme of C11 strain filled in; supply it.
−

Entry OC[C@H]1O[C@@H]2O[C@H]3[C@H](O)[C@@H](O)[C@@H](O[C@H]4[C@H](O)[C@@H](O)[C@@H](O[C@H]5[C@H](O)[C@@H](O)[C@@H](O[C@H]6[C@H](O)[C@@H](O)[C@@H](O[C@H]7[C@H](O)[C@@H](O)[C@@H](O[C@H]1[C@H](O)[C@H]2O)O[C@@H]7CO)O[C@@H]6CO)O[C@@H]5CO)O[C@@H]4CO)O[C@@H]3CO needs its Product of saccharide transferring reaction, Enzyme of C11 strain filled in; supply it.
−
